Experiment: qHTS assay for identifying genotoxic compounds that show differential cytotoxicity against isogenic chicken DT40 cell lines with known DNA damage response pathways - Rev3 mutant cell line (AID 743014); also: nearly all actives have a fitted effect of over 55% in size
Details: chicken DT40 Rev3-/- viability, CellTiter-Glo, 40 h; series mostly up to 68.4 µM
Results filed as inconclusive are left out. Calls of active or inactive are those of the source. Calls follow the shape of the dose curve; as a rule, active = well fitted cell-killing curve with a large enough effect in the repeat runs; inconclusive = weak or mixed curves, or effect the other way; inactive = no such curve, though single readings can be large or run the other way.
Outcomes: YES for active, NO for inactive

compound: O=[N+]([O-])O.O=[N+]([O-])O.[Cd]
class.label: YES

compound: Oc1ccc2ccc3cccc4ccc1c2c34
class.label: YES

compound: c1ccc(Nc2ccc3ccccc3c2)cc1
class.label: YES

compound: CN(C)CCc1c[nH]c2ccc(O)cc12
class.label: NO

compound: [Hg+2].[I-].[I-]
class.label: YES

compound: CCN
class.label: NO

compound: CC(C)[C@H](C(=O)O[C@H](C#N)c1cccc(Oc2ccccc2)c1)c1ccc(Cl)cc1
class.label: YES

compound: CC[C@H]1C[C@@H]2C[C@H]3c4[nH]c5ccc(OC)cc5c4CCN(C2)[C@@H]13
class.label: YES

compound: CC1(C)CN=C(NN=C(/C=C/c2ccc(C(F)(F)F)cc2)/C=C/c2ccc(C(F)(F)F)cc2)NC1
class.label: YES

compound: CS(=O)(=O)c1ccc(C(=O)C2C(=O)CCCC2=O)c([N+](=O)[O-])c1
class.label: YES

compound: COC12CC[C@@]3(C[C@@H]1C(C)(O)C(C)(C)C)[C@H]1Cc4ccc(O)c5c4[C@@]3(CCN1CC1CC1)[C@H]2O5 (stereo partly drawn)
class.label: YES

compound: O=C(O)COc1nc(Cl)c(Cl)cc1Cl
class.label: YES

compound: CCC(C)c1cc([N+](=O)[O-])cc([N+](=O)[O-])c1OC(=O)C=C(C)C (stereo not drawn)
class.label: YES

compound: Cc1cc(C(F)(C(F)(F)F)C(F)(F)F)ccc1NC(=O)c1cccc(I)c1C(=O)NC(C)(C)CS(C)(=O)=O
class.label: YES

compound: CN(C)CCc1c[nH]c2cccc(O)c12
class.label: YES

compound: Clc1ccc(CO/N=C(\Cn2ccnc2)c2ccc(Cl)cc2Cl)c(Cl)c1
class.label: YES

compound: CCCN(CCC)c1c([N+](=O)[O-])cc(S(N)(=O)=O)cc1[N+](=O)[O-]
class.label: YES

compound: ClC1=C(Cl)[C@]2(Cl)[C@@H]3[C@@H]4C[C@@H]([C@H]5O[C@@H]45)[C@@H]3[C@@]1(Cl)C2(Cl)Cl
class.label: YES

compound: c1ccc2c(c1)OCC(C1=NCCN1)O2 (stereo not drawn)
class.label: YES

compound: CCc1nn(C)c(C(=O)NCc2ccc(C(C)(C)C)cc2)c1Cl
class.label: YES

compound: Clc1ccc(CSC(Cn2ccnc2)c2ccc(Cl)cc2Cl)cc1 (stereo not drawn)
class.label: YES

compound: CC(C)[C@H](C(=O)OC(C#N)c1cccc(Oc2ccccc2)c1)c1ccc(OC(F)F)cc1 (stereo partly drawn)
class.label: YES

compound: O=C(NC(=O)c1c(F)cccc1F)Nc1cc(Cl)c(OC(F)(F)C(F)F)c(Cl)c1
class.label: NO

compound: O=C(CCl)C(Cl)Cl
class.label: YES

compound: C1CCC2CCCCC2C1 (stereo not drawn)
class.label: NO

compound: O=C(O)c1cc[c]([Hg][Cl])cc1
class.label: YES

compound: Oc1c(Br)c(Br)c(Br)c(Br)c1Br
class.label: NO

compound: CC(c1ccc(O)cc1)c1ccc(O)cc1
class.label: NO

compound: COc1cc(N)c(Cl)cc1C(=O)NC1CN2CCC1CC2 (stereo not drawn)
class.label: NO

compound: Oc1cc(Cl)c(Cl)c(Cl)c1
class.label: NO

compound: CC(C)(C)c1ccc(CSc2cnn(C(C)(C)C)c(=O)c2Cl)cc1
class.label: YES

compound: CCCCOCN(C(=O)CCl)c1c(CC)cccc1CC
class.label: YES

compound: CC(=O)O[C@H]1CC[C@@]2(C)C(=CC[C@@H]3[C@@H]2CC[C@]2(C)C(=O)CC[C@@H]32)C1
class.label: NO

compound: CC(C)N1C(=O)N(c2ccccc2)CSC1=NC(C)(C)C
class.label: YES

compound: Clc1ccc(-c2ccc(Cl)c(Cl)c2Cl)c(Cl)c1Cl
class.label: NO

compound: Cc1cc(C(C)(C)c2cc(C)c(O)c(C)c2)cc(C)c1O
class.label: YES

compound: Clc1ccc(C(Cl)(Cl)Cl)c(Cl)c1
class.label: NO

compound: CCCCCCCCCBr
class.label: NO

compound: CCCCCCCCCCCCCN1CC(C)OC(C)C1 (stereo not drawn)
class.label: YES

compound: O=c1ssc(Cl)c1Cl
class.label: YES

compound: O=[N+]([O-])c1ccc(Oc2ccc(C(F)(F)F)cc2[N+](=O)[O-])cc1
class.label: YES

compound: CC(=O)[O-].CC(=O)[O-].[Hg+2]
class.label: YES

compound: C=CC(=O)OCC(COC(=O)C=C)(COC(=O)C=C)COC(=O)C=C
class.label: YES

compound: COc1ccc(/C(=C/C(=O)N2CCOCC2)c2ccc(Cl)cc2)cc1OC
class.label: YES

compound: Oc1ccc(C(=C(Cl)Cl)c2ccc(O)cc2)cc1
class.label: NO

compound: CC(C)CC(C)N (stereo not drawn)
class.label: NO

compound: C[C@]12CC[C@H]3[C@@H](CCC4=CC(=O)CC[C@@]43C)[C@@H]1CC[C@@H]2O
class.label: YES

compound: CC1(c2ccc(Oc3ccccc3)cc2)OC(=O)N(Nc2ccccc2)C1=O (stereo not drawn)
class.label: YES
